Numbers sourced from patent US20240383904A1.

target: MAGL (Homo sapiens); assay: 2-AG assay: MAGL inhibitory activity by hydrolysis of 2-arachidonoylglycerol to arachidonic acid, followed by mass spectrometry; assay type: biochemical; conditions: 15 min preincubation, 30 min reaction at RT, 8 μM 2-arachidonoylglycerol
pIC50: −log10 of the molar value.
QUANTITY_KIND: pIC50

Example results:
- CHEMICAL_STRING: "O=C1CCC2(CN(C(=O)N3CC4(CC[C@@H](Cc5cccc(S(=O)(=O)C(F)(F)F)c5)C4)C3)C2)N1"
  pIC50: 9.64
- CHEMICAL_STRING: "O=C1CCC2(CN(C(=O)N3CC4(CC(Cn5cnc(C(F)(F)F)c5)C4)C3)C2)N1"
  pIC50: 7.44

[1] O=C1NC2(CO1)CN(C(=O)N1CC3(C1)CN(S(=O)(=O)c1ccc(OC(F)(F)F)cc1)C3)C2
[2] O=C1COCC2(CN(C(=O)N3CC4(CC(Cc5ncc(C(F)(F)F)cc5F)C4)C3)C2)N1
Query :: Form field 'greater pIC50' accepts 1 or 2 ; which applies? Bench note: the answer is the label of the chosen record.
Result :: 2

[P] O=C1CCC2(CN(C(=O)N3CC4(CCC(Cc5ncc(F)cc5F)CC4)C3)C2)N1
[Q] Cn1ncc(C(F)(F)F)c1CC1CC2(C1)CN(C(=O)N1CC3(CCCC(=O)N3)C1)C2
Query :: Between these two entries, P and Q , state which has the higher pIC50. Let me know the label of the one you choose.
Result :: P

[P] O=C1NCC2(CN(C(=O)N3CCC4(CC3)CN(Cc3ccc(C(F)(F)F)cc3F)C4)C2)N1
[Q] O=C1NC2(CO1)CN(C(=O)N1CC3(CC(Cc4ncc(C(F)(F)F)cc4F)C3)C1)C2
Query :: Could you tell me which of these two has the smaller pIC50 figure? First: P Second: Q Identify your selection by its label.
Result :: P

[A] O=C1COCC2(CN(C(=O)N3CC4(CC(Cc5cncc(F)c5)C4)C3)C2)N1
[B] O=C1CCC2(CN(C(=O)N3CC4(CCN(Cc5ccc(S(=O)(=O)C(F)(F)F)cc5)CC4)C3)C2)N1
[C] O=C1COCC2(CN(C(=O)N3CC4(CCN(Cc5cccc(S(=O)(=O)C(F)(F)F)c5)CC4)C3)C2)N1
Query :: rank_up(items): orders items by reported pIC50 in ascending numerical order. # respond with the labels, arranged in the requested order
Result :: A, C, B

----------
biological target: UniProt Q99685; experiment: 2-AG assay: MAGL inhibitory activity by hydrolysis of 2-arachidonoylglycerol to arachidonic acid, followed by mass spectrometry; format: biochemical; conditions: 15 min preincubation, 30 min reaction at RT, 8 μM 2-arachidonoylglycerol
QUANTITY_KIND: IC50 (nM)

- COMPOUND: "O=C1CCC2(CN(C(=O)N3CC4(CN(Cc5nnc(C(F)(F)F)s5)C4)C3)C2)N1 [Example 342]"
  QUANTITY_KIND: "IC50"
  UOM: "nM"
  RECORDED_NUMBER: 1600

[P] O=C1CCC2(CN(C(=O)N3CC4(CC(Cc5ccc(OC(F)(F)F)cn5)C4)C3)C2)N1 [Example 6]
[Q] O=C1CCC2(CN(C(=O)N3CC4(CC[C@H](Cc5ccc(S(=O)(=O)C(F)(F)F)cc5)C4)C3)C2)N1 [Example 221]
[R] O=C1CCC2(CN(C(=O)N3CC4(CC(NS(=O)(=O)c5cccc(C(F)(F)F)c5)C4)C3)C2)N1 [Example 55]
[S] O=C1COCC2(CN(C(=O)N3CC4(CC(Cc5cncc(S(=O)(=O)C(F)(F)F)c5)C4)C3)C2)N1 [Example 253]
[T] N=[S@@](=O)(c1ccc(CC2CC3(C2)CN(C(=O)N2CC4(CCC(=O)N4)C2)C3)cc1)C(F)(F)F [Example 286]
Query :: Would you mind ranking these compounds by ascending IC50? Please list the labels in the order you were asked to rank them.
Result :: P, Q, T, R, S
(P: 0.47 nM, Q: 1.31 nM, T: 2.89 nM, R: 9.81 nM, S: 33.5 nM)

----------
target: MAGL (Homo sapiens, UniProt Q99685); assay: 2-AG assay: MAGL inhibitory activity by hydrolysis of 2-arachidonoylglycerol to arachidonic acid, followed by mass spectrometry; type: biochemical; settings: 15 min preincubation, 30 min reaction at RT, 8 μM 2-arachidonoylglycerol
Sequence (Q99685 whole entry, species assumed): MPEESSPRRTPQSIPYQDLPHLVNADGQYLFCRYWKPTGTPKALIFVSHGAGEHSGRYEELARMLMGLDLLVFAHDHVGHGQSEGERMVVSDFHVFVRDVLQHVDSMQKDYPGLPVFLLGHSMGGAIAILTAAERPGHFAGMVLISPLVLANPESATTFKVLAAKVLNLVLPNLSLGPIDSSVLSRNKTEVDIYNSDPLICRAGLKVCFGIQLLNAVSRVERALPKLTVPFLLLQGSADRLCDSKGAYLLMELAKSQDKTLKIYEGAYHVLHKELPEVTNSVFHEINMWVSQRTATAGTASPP
QUANTITY_KIND: IC50 (nM)

- COMPOUND: "O=C1CCC2(CN(C(=O)N3CC4(CC(Cc5n[nH]c(C(F)(F)F)n5)C4)C3)C2)N1 [Example 333]"
  QUANTITY_KIND: "IC50"
  UOM: "nM"
  RECORDED_NUMBER: 88.1

[a] O=C1COCC2(CN(C(=O)N3CC4(CC(Cc5cnn(C(F)(F)F)c5)C4)C3)C2)N1 [Example 365]
[b] O=C1COCC2(CN(C(=O)N3CC4(CCN(Cc5ccc(C(F)(F)F)nc5)C4)C3)C2)N1 [Example 240]
[c] CS(=O)(=O)c1cc(CC2CC3(C2)CN(C(=O)N2CC4(COCC(=O)N4)C2)C3)cc(C(F)(F)F)c1 [Example 238]
Query :: Sort entries by IC50 from minimum to maximum value. Output the labels ranked as instructed.
Result :: c, a, b
(c: 16.5 nM, a: 41 nM, b: 1240 nM)

[I] O=C1NC2(CO1)CN(C(=O)N1CC3(CN(Cc4cnc(C(F)(F)F)nc4)C3)C1)C2 [Example 161]
[II] O=C1CCC2(CN(C(=O)N3CC4(C3)CN(S(=O)(=O)c3ccccc3OC(F)(F)F)C4)C2)N1 [Example 200]
Query :: Identify the item whose IC50 is the smaller number: I or II When you have decided, please share the label of that item.
Result :: I
(I: 51.5 nM, II: 116 nM)

[A] O=C1CCC2(CN(C(=O)N3CC4(CC(Cc5cn(C6CC6)nc5C(F)(F)F)C4)C3)C2)N1 [Example 324]
[B] O=C1CCC2(CN(C(=O)N3CC4(CC(Cn5ccc(C(F)(F)F)n5)C4)C3)C2)N1 [Example 225]
Query :: Input pair: A , B . Output: entry with lower IC50. Answer with the label corresponding to your selection.
Result :: A

[1] O=C1COCC2(CN(C(=O)N3CC4(CCC(Cc5cnc(C(F)(F)F)cn5)CC4)C3)C2)N1 [Example 226]
[2] O=C1COCC2(CN(C(=O)N3CC4(CN(Cc5ccc(C(F)(F)F)cc5F)C4)C3)C2)N1 [Example 372]
Query :: Could you kindly indicate whether 1 or 2 has the higher IC50 value? Selection: enter the item's label.
Result :: 1
(1: 45.9 nM, 2: 15.6 nM)

[a] Cn1nc(CC2CC3(C2)CN(C(=O)N2CC4(COCC(=O)N4)C2)C3)cc1C(F)(F)F [Example 367]
[b] O=C1CCC2(CN(C(=O)N3CC4(CN(Cc5cn[nH]c5C(F)(F)F)C4)C3)C2)N1 [Example 316]
[c] O=C1NC2(CO1)CN(C(=O)N1CC3(CN(Cc4ccc(C(F)(F)F)nn4)C3)C1)C2 [Example 159]
[d] CP(C)(=O)c1cc(F)cc(CC2CC3(C2)CN(C(=O)N2CC4(CCC(=O)N4)C2)C3)c1 [Example 339]
[e] O=C1COCC2(CN(C(=O)N3CC4(CC(Cc5ccc(C(F)(F)F)cc5F)C4)C3)C2)N1 [Example 145]
Query :: Reorder: IC50, max to min. Would you mind listing the labels in the order asked for?
Result :: b, d, c, a, e

[A] O=C1NC2(CO1)CN(C(=O)N1CC3(CC(NCC4(C(F)(F)F)CC4)C3)C1)C2 [Example 119]
[B] O=C1CCCC2(CN(C(=O)N3CC4(CC(Cc5ccc(S(=O)(=O)C6CC6)cc5)C4)C3)C2)N1 [Example 269]
Query :: Parameter check: reported IC50 is higher for which label, A or B ? Answer with the label corresponding to your selection.
Result :: B
(B: 473 nM, A: 2.93 nM)

----------
target: MAGL (Homo sapiens, UniProt Q99685); test: 2-AG assay: MAGL inhibitory activity by hydrolysis of 2-arachidonoylglycerol to arachidonic acid, followed by mass spectrometry; assay type: biochemical; conditions: 15 min preincubation, 30 min reaction at RT, 8 μM 2-arachidonoylglycerol
QUANTITY_KIND: IC50 (nM)

- COMPOUND: "O=C1NC2(CO1)CN(C(=O)N1CC3(CN(Cc4ncc(F)cc4F)C3)C1)C2"
  TARGET_UNDER_TEST: "MAGL (Homo sapiens, UniProt Q99685)"
  IC50 [nM]: 15.1
- COMPOUND: "N=[S@](=O)(c1ccc(CC2CC3(C2)CN(C(=O)N2CC4(CCC(=O)N4)C2)C3)cc1)C(F)(F)F"
  TARGET_UNDER_TEST: "MAGL (Homo sapiens, UniProt Q99685)"
  IC50 [nM]: 0.62
- COMPOUND: "O=C1CCC2(CN(C(=O)N3CC4(CC(Cc5ncc(C(F)(F)F)cn5)C4)C3)C2)N1"
  TARGET_UNDER_TEST: "MAGL (Homo sapiens, UniProt Q99685)"
  IC50 [nM]: 7
- COMPOUND: "CS(=O)(=O)c1ccc(CC2CC3(C2)CN(C(=O)N2CC4(COCC(=O)N4)C2)C3)cc1C(F)(F)F [Example 183]"
  TARGET_UNDER_TEST: "MAGL (Homo sapiens, UniProt Q99685)"
  IC50 [nM]: 7.31
- COMPOUND: "O=C1CCC2(CN(C(=O)N3CC4(CCN(Cc5ccc(C(F)(F)F)cn5)C4)C3)C2)N1"
  TARGET_UNDER_TEST: "MAGL (Homo sapiens, UniProt Q99685)"
  IC50 [nM]: 140

[A] N=[S@](=O)(c1ccc(CC2CC3(C2)CN(C(=O)N2CC4(COCC(=O)N4)C2)C3)cc1)C(F)(F)F
[B] N#Cc1ccc(CC2CC3(C2)CN(C(=O)N2CC4(CCCC(=O)N4)C2)C3)cc1C(F)(F)F
Query :: Task for the reader: decide whether A or B has the larger IC50. // return label of chosen record
Result :: B
